Test: mn = molality of the nth substance listed, in mol/kg
Conditions: 298.15 K; 101 kPa; Liquid; Alternating current cell with electrodes; m1 = 0.001
measured-parameter: electrical conductivity (S/m)

Solved entries (count: 2):
[
  {
    "compound": "[Na+].[OH-] [sodium hydroxide] + O",
    "electrical conductivity [S/m]": 0.0246
  },
  {
    "compound": "O=C([O-])O.[K+] [potassium bicarbonate] + O",
    "electrical conductivity [S/m]": 0.0118
  }
]

[I] [Cl-].[K+] [potassium chloride] + O
[II] O=S(=O)([O-])[O-].[Na+].[Na+] [sodium sulfate] + O
Of I and II , which one carries the higher reported electrical conductivity? Return value: the label identifying the chosen record.
II
(II: 0.0242 S/m, I: 0.0147 S/m)

---

Test: mn = molality of the nth substance listed, in mol/kg
Settings: 318.15 K; 101 kPa; Liquid; Alternating current cell with electrodes; m1 = 0.01
measured-parameter: electrical conductivity (S/m)

Solved entries (count: 2):
[
  {
    "compound": "[Na+].[OH-] [sodium hydroxide] + O",
    "measured-parameter": "electrical conductivity",
    "value-reported": 0.32
  },
  {
    "compound": "[Cl-].[Na+] [sodium chloride] + O",
    "measured-parameter": "electrical conductivity",
    "value-reported": 0.169
  }
]

[P] O=S(=O)([O-])[O-].[Na+].[Na+] [sodium sulfate] + O
[Q] [Cl-].[K+] [potassium chloride] + O
Of P versus Q , which is the one with smaller reported electrical conductivity? Return value: the label identifying the chosen record.
Q
(Q: 0.198 S/m, P: 0.305 S/m)

---

Experiment: mn = molality of the nth substance listed, in mol/kg
Settings: 363.15 K; 101 kPa; Liquid; Alternating current cell with electrodes; m1 = 0.001
measured-parameter: electrical conductivity (S/m)

Solved entries (count: 2):
[
  {
    "compound": "O=S(=O)([O-])[O-].[Na+].[Na+] [sodium sulfate] + O",
    "measurement-unit": "S/m",
    "electrical conductivity": 0.0633
  },
  {
    "compound": "O=C([O-])O.[K+] [potassium bicarbonate] + O",
    "measurement-unit": "S/m",
    "electrical conductivity": 0.0304
  }
]

[P] [Cl-].[K+] [potassium chloride] + O
[Q] [Na+].[OH-] [sodium hydroxide] + O
Of P versus Q , which is the one with smaller reported electrical conductivity? Return value: the label identifying the chosen record.
P
(P: 0.0359 S/m, Q: 0.0521 S/m)

---

Assay: mn = molality of the nth substance listed, in mol/kg
Settings: 343.15 K; 101 kPa; Liquid; Alternating current cell with electrodes; m1 = 0.01
measured-parameter: electrical conductivity (S/m)

Solved entries (count: 2):
[
  {
    "compound": "O=S(=O)([O-])[O-].[Na+].[Na+] [sodium sulfate] + O",
    "electrical conductivity / S/m": 0.438
  },
  {
    "compound": "[Cl-].[K+] [potassium chloride] + O",
    "electrical conductivity / S/m": 0.276
  }
]

[I] [Cl-].[Na+] [sodium chloride] + O
[II] [Na+].[OH-] [sodium hydroxide] + O
Of I and II , which one carries the higher reported electrical conductivity? Return value: the label identifying the chosen record.
II
(II: 0.429 S/m, I: 0.242 S/m)
